Experiment: chemical genetic growth profiling, strain panel (AID 1159580);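 also: tested at 20 µM; growth read once vehicle control cultures reached saturation at 30 °C; 1 = growth at the plate median or of vehicle wells; lower values mean less growth of the strain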
Conditions: S. cerevisiae deletion strains, growth OD, locus YDR297W, strain sur2, stronger effect = lower value
Among all 5,500 compounds or so, about 2,000 (36%) were called active. Roughly 18% stayed inconclusive and do not appear here. Some of the results follow.
Reported normalized growth by item:
// print number alone

Ask | Determine from records and report normalized growth for CC(CCC(=O)O)[C@H]1CCC2C3C(C[C@H](O)[C@@]21C)[C@@]1(C)CC[C@@H](O)C[C@H]1C[C@H]3O (stereo not given in full)
Reply | 0.998

Ask | Determine from records and report normalized growth for CC[C@H](CCC(C)[C@H]1CCC2C3CCC4C[C@@H](O)CC[C@]4(C)C3CC[C@@]21C)C(C)C (stereo not given in full)
Reply | 0.993

Ask | Determine from records and report normalized growth for COC(=O)CCC(C)C1CCC2C3CC[C@@H]4C[C@H](O)CC[C@]4(C)C3C[C@H](O)[C@]12C (stereo not given in full)
Reply | 0.986

Ask | Determine from records and report normalized growth for COc1c(Cl)ccc(Cl)c1C(=O)O
Reply | 0.993

Ask | Determine from records and report normalized growth for CC(CCC(=O)O)[C@H]1CCC2C3CC[C@@H]4CCCC[C@]4(C)C3CC[C@@]21C (stereo not given in full)
Reply | 1.01
